# credit: patent US20240383852A1

System: human Hep G2 cells (ATCC HB-8065)
Assay: Cytotoxicity in Hep G2 cells (CellTiter-Glo)
Format: cell-based
Conditions: Hep G2 cells, 100 μM test article, 24-hour exposure
endpoint: % Cell Viability (%)
One number for each entry, in %.

For every record below, what is its % Cell Viability?
1. Cc1ccc(N2CCN(C)CC2)cc1C(=O)N[C@H](C)c1cccc2ccccc12
2. Cc1ccc(N2CCN(C)CC2)cc1C(=O)N[C@H](C)c1cccc(-c2cccc(CCO)c2)c1
3. Cc1ccc(N2CCN(C)CC2)cc1C(=O)N[C@H](C)c1cccc(-c2cccc(C(=O)N3CCN(C)CC3)c2)c1

1: 56.9; 2: 61.0; 3: 78.8

###

Biological target: SARS-CoV-2 PLpro (Severe acute respiratory syndrome coronavirus 2)
Construct: containing 60 nM papain-like protease
Assay: biochemical
Settings: 60 nM papain-like protease, 50 μM Z-RLRGG-AMC, pH 7.5, 37° C.; read-out: SARS-CoV-2 PLpro IC50
Where a name gives a salt, the structure may show the parent alone.
Would you kindly list IC50 for each of these compounds?

Answered examples (8):
INSERT INTO assay_data (compound, result) VALUES
  ('Cc1ccc(N2CCN(C)CC2)cc1C(=O)N[C@H](C)c1cccc(-c2cnc(N)nc2)c1', '< 2000 nM'),
  ('Cc1ccc(N2CCN(CC(=O)O)CC2)cc1C(=O)N[C@H](C)c1cccc2ccccc12', '< 2000 nM'),
  ('Cc1ccc(N2C[C@H]3C[C@@H]2CN3C)cc1C(=O)N[C@H](C)c1cccc(Br)c1', '< 2000 nM'),
  ('COc1cc(-c2cnn(C)c2)cc([C@@H](C)NC(=O)c2cc(N3CCN(C)CC3)ccc2C)c1', '< 2000 nM'),
  ('CNCCN(C)C(=O)c1cccc([C@@H](C)NC(=O)c2cc(N3CCN(C)CC3)ccc2C)c1 [Example 314, Dihydrochloride Salt]', '< 20000 nM'),
  ('Cc1ccc(C2CCN(C)CC2)cc1C(=O)N[C@H](C)c1cccc2ccccc12', '< 2000 nM'),
  ('Cc1ccc(N2CCN(C)CC2)cc1C(=O)N[C@H](C)c1cc(-c2cnn(C)c2)cs1', '< 5000 nM'),
  ('COCCNC(=O)c1cc(-c2cccc([C@@H](C)NC(=O)c3cc(N4CCN(C)CC4)ccc3C)c2)cs1', '< 2000 nM');

For every record below, what is its IC50?
1. Cc1ccc(N2CCN(CCCC(=O)O)CC2)cc1C(=O)N[C@H](C)c1cccc2ccccc12
2. C[C@@H](NC(=O)c1cc(N2CCNC(C(F)(F)F)C2)ccc1Cl)c1cccc2ccccc12 (stereo partly drawn)
3. Cc1ccc(N2CCN(C)CC2)cc1C(=O)N[C@H](C)c1cccc2c1OCCO2
4. COc1cc(-c2cnn(C)c2C)cc([C@@H](C)NC(=O)c2cc(N3CCN(C)CC3)ccc2C)c1 [Example 253, hydrochloride salt]
5. Cc1ccc(N2CCCN(CCC(=O)O)CC2)cc1C(=O)N[C@H](C)c1cccc2ccccc12

1. < 2000 nM
2. < 100000 nM
3. < 20000 nM
4. < 2000 nM
5. < 5000 nM

For every record below, what is its IC50?
1. Cc1ccc(N2CCN(C)CC2)cc1C(=O)N[C@H](C)c1ccc(Cl)c(-c2cnn(C)c2)c1
2. Cc1ccc(N2CCN(C)CC2)cc1C(=O)N[C@H](C)c1cccc(C(=O)NCC(N)=O)c1 [Example 310, hydrochloride salt]

["< 2000 nM", "< 5000 nM"]
